Field: melting point. Provide a value for each of the compounds that follow.

Take a look at these entries with their results.
>>> df
                                   compound         result
0  Cc1ccc(Nc2nc(-n3nc(C)cc3C)nc3ccccc23)cc1  210 to 216 °C
1                 ClC(Cl)(Cl)c1cnnc2ccccc12         137 °C
2  Cc1nnc(-c2cnc3occ(-c4ccc(S(C)(=O)=O)cc4)c3c2)o1  251 to 252 °C

The following compounds each have a reported value; give each one's melting point.
1. N#CSCC(I)=C(I)CCl
2. CCOC(=O)c1ncn2c1CN=C(c1ccccc1F)c1cc(C#C[Si](C)(C)C)ccc1-2
3. COC1=C(OC)C(=O)C2=C(CC(CCCCOc3ccc(C(=O)N(C)C)cc3)C2)C1=O
4. NC(=O)N(O)Cc1ccoc1
5. O=S(c1ncccn1)c1cccc2cccnc12 (stereo not drawn)
6. CCCc1cccc2[nH]c(C(=O)OCC)cc(=O)c12
7. COc1cccc(-c2nc3c(C(N)=O)cccc3[nH]2)c1

Reply:
["76 to 78 °C", "196 to 198 °C", "80 to 83 °C", "125 to 128 °C", "152 to 155 °C", "153 to 154 °C", "93 to 94 °C"]

---

metric.name: melting point

The following molecules each have a reported value; give each one's melting point.
1. O=C(O)c1ccc(CCCCCc2ccccc2)cc1
2. COCCC1CCCCc2c1oc(=O)c(C(c1ccccc1)C1CC1)c2O (stereo unspecified)

Reply:
1. 80 to 80.5 °C
2. 58 to 60 °C

---

Field: melting point. Provide a value for each of the compounds that follow.

                                   compound         result
0  Nc1nc2c(ncn2OCC(O)CCP(=O)(O)O)c(=O)[nH]1 (stereo unspecified)       > 315 °C
1           CCOC(=O)c1cnn(-c2ccc(CBr)cc2)n1  148 to 149 °C
2  O=S(=O)(CC(F)(F)F)N(Cc1cccnc1)c1cccc(Oc2ccccc2O)c1  57.5 to 60 °C
3               OCCCc1conc1-c1ccc(F)c(Br)c1    40 to 41 °C
4  Cc1nc(Cl)c(Cl)n1CCCCN1CCN(c2ncc(O)cn2)CC1  154 to 156 °C

Task item: Reported melting point for CCCCCN1C(=O)C(NC(=O)C2CCc3ccccc3C2)c2ccccc21 (stereo unspecified) : what is it?
Reply: 127 to 132 °C

---

metric.name: melting point

In [3]: df
Out[3]:
                                   compound    metric_name         result
0                O=C(O)c1cc2ccnc(Cl)c2[nH]1  melting point  210 to 214 °C
1  CCCCc1nc(=O)c2cc(C3=NN(C(c4ccccc4)(c4ccccc4)c4ccccc4)[C@H]4C(=O)N(C)C(=O)[C@@H]34)ccc2[nH]1 (relative stereo)  melting point         182 °C
2                  c1cncc(-c2ccc3nncn3c2)c1  melting point  200 to 202 °C
3  CCc1cc(NCc2ccc3oc(-c4ccccc4C#N)c(Br)c3c2)n2nccc2n1  melting point  186 to 194 °C

Attention now shifts to the item below.
Task item: Reported melting point for CC(C)c1cc2c(cc1CCSCC(=O)O)OCO2 : what is it?
Reply: 75.5 to 76 °C

---

metric.name: melting point

In [3]: df
Out[3]:
                                   compound    metric_name         result
0                 COc1ccccc1Sc1ccccc1C(=O)O  melting point  198 to 200 °C
1  CC(=NNC(=N)N)c1sc(-c2ccc(C(C)(C)C)cc2)nc1C  melting point  252 to 253 °C

The following compounds each have a reported value; give each one's melting point.
1. Cc1ccc([N+](=O)[O-])c(OCCOc2cc(C(=O)OC(C)(C)C)ccc2[N+](=O)[O-])c1
2. O=C(Nc1cc(-c2c(-c3ccc(F)cc3)nc3cccnn23)ccn1)c1ccncc1
3. Cc1ncc(C#N)c(Nc2ccc3[nH]ccc3c2C)c1-c1ccc(OCCCl)cc1
4. COc1ccc(C(=O)Nc2ccccc2)cc1NS(=O)(=O)c1ccc(C)cc1
5. N#Cc1ccccc1-c1ccc(CNc2ccnc3ccnn23)cc1
6. CCOC(=O)c1cnc2[nH]ncc2c1OCC

Reply:
1: 113 to 114 °C; 2: 226 to 227 °C; 3: 200 to 201 °C; 4: 200 to 202 °C; 5: 170 °C; 6: 180 °C

The following compounds each have a reported value; give each one's melting point.
1. O=C(CCc1ccc(F)cc1)c1ccc(C(F)(F)F)cc1
2. COc1cc(OC)c2c(=O)[nH]c(-c3ccc(OCCNC(C)C)c(-c4ccc(S(C)(=O)=O)cc4)n3)nc2c1
3. COc1ccc(OC)c(COc2ccc3nc[nH]c(=O)c3c2)c1
4. CS(=O)(=O)Nc1ccc(-c2nc(C(F)(F)F)c[nH]2)cc1
5. Cc1cc(NC(=O)NC(=O)c2ccccc2Cl)nc(C)c1-c1ccccc1
6. Nc1ccc(C(=O)c2ccncc2)cc1N
7. NCCCCOc1ccc2c(c1)NC(=O)C(CC(=O)O)C2 (centres undefined)
8. Cc1c(CC(=O)N(C)C)oc2ccc(F)cc12

Reply:
66 to 67 °C
114 to 116 °C
155 to 158 °C
253 to 255 °C
176 to 189 °C
210 to 214 °C
229 to 230 °C
88 to 90 °C

The following compounds each have a reported value; give each one's melting point.
1. O=C(Nc1cccc(-c2ccccc2)c1)Nc1cccc2[nH]ccc12
2. CCOC(=O)C1=Cc2cc(Br)ccc2N(C=O)CC1
3. C[C@@H]1CCN(C(=O)C(C)(C)C)[C@@H](C(=O)NOCc2ccccc2)C1
4. O=S(=O)(N=CN1CCOCC1)c1nc(-c2ccccc2)ns1
5. Cc1ccc(C2c3c(C)c(N4CCN(c5cc(C)cc(C)c5)CC4)c(C)c(C)c3OC2(C)C)cc1 (centres undefined)

Reply:
213 to 215 °C
150 to 152 °C
107 to 108 °C
185 to 187 °C
147 to 149 °C

The following compounds each have a reported value; give each one's melting point.
1. O=C(CN1CCOCC1)Nc1cccc2c1C(=O)c1c-2n[nH]c1-c1ccc(N2CCNCC2)cc1
2. COC(=O)c1cc(C(=O)c2ncc3ccc(C(=O)OC(C)(C)C)cn23)ccc1[N+](=O)[O-]
3. CC=C1CC2C3CCc4cc(OC)ccc4C3CCC2(C)C1=O (centres undefined)
4. Nc1ccc2snc(-c3sccc3Cl)c2c1
5. OCC1Cc2c(cc(Cl)c3c(-c4ccccc4F)noc23)O1 (centres undefined)
6. CCOC(=O)N1CCN(c2c(F)cc([N+](=O)[O-])c(F)c2COC)CC1
7. O=C(NC(=O)c1ccccc1Cl)Nc1cc(C(F)(F)F)c(Cl)cc1Br
8. CCOC(=O)C1=C[C@@H](OC(CC)CC)[C@H](NC(C)=O)[C@@H](NC(=O)OC(C)(C)C)C1

Reply:
["259 °C", "170 °C", "139 to 140 °C", "128 to 132 °C", "110 to 111 °C", "85 to 86 °C", "185 °C", "144 to 145 °C"]

---

Field: melting point. Provide a value for each of the compounds that follow.

Take a look at these entries with their results.
In [3]: df
Out[3]:
                                   compound         result
0  CCOC(=O)c1cn(Cc2ccccc2)nc1OCc1ccc(OCc2nc(-c3ccccc3)oc2C)cc1   99 to 100 °C
1      CC(=O)c1ccc2[nH]c3ccc(C(C)=O)cc3c2c1         241 °C
2  CN1C(=O)CCCc2cc(Nc3ncc(Cl)c(Nc4ccccc4C(=O)NCCO)n3)ccc21  190 to 194 °C
3  Nc1cccc(Cn2c(-c3ccc(O)cc3)ccc2-c2ccccc2Cl)n1  170 to 172 °C

The following compounds each have a reported value; give each one's melting point.
1. COc1cc(NS(=O)(=O)c2cccs2)c2[nH]c(C(=O)NCCSC(c3ccccc3)(c3ccccc3)c3ccccc3)cc2c1
2. CCn1nnn(CCN2CCC(COC)(N(OCc3ccccc3)C(C)=O)CC2)c1=O
3. CCCc1nn(-c2ccc(C(F)(F)F)cn2)cc1CCCOc1nn(C)cc1CC(=O)O
4. CC(=O)OCc1nnc2n1-c1sc(Cl)cc1C(c1ccccc1Cl)=NC2
5. Brc1ccc2ccncc2c1

Reply:
["128 to 129 °C", "140 to 141 °C", "119 to 120 °C", "191 to 193 °C", "78 to 79 °C"]

The following compounds each have a reported value; give each one's melting point.
1. O=C(c1ccc(F)cc1)c1cc(F)ccc1OCCCCl
2. Cc1c(C)c(N2Cc3ccccc3C2)c(C)c2c1OC(C)(C)C2

Reply:
1. 60 °C
2. 161 to 163 °C

The following compounds each have a reported value; give each one's melting point.
1. CCOC(=O)CCc1nnc(-c2nccs2)c2cc(OC)ccc12
2. Cc1cccc(C(=O)O)c1N(C)S(=O)(=O)c1ccc(OCCCNC(=O)c2cc3ccccc3o2)cc1
3. O=C1Cc2cc(NC(=O)C(=O)O)ccc2N1
4. COP(=O)(CC(=C(c1ccc(F)cc1)c1ccc(F)cc1)n1cnnn1)OC
5. FC(F)(F)c1cccc(-c2cc(C3CCNCC3)nnc2-c2ccncc2)c1
6. COc1ccc2cc(-c3ccc(O)cc3)[nH]c(=O)c2c1

Reply:
1: 153 to 154 °C; 2: 184 to 186 °C; 3: 256 °C; 4: 133 to 134 °C; 5: 148 to 150 °C; 6: 255 °C
